Entry source: ChEMBL document CHEMBL1143545

# Tested on: Escherichia coli
# TEST_DETAILS: Minimal inhibitory concentration against Escherichia coli K-12 ML1410 was determined by 2-fold agar dilution streak method at 37: C for 18 h
# Type: functional
MEASURED_QUANTITY: MIC (µg/mL)

COMPOUND: NCCCC(=O)NC1CC(N)C(OC2OC(CN)CCC2N)C(O)C1OC1OC(CO)C(O)C(N)C1O (stereo not given)
MEASURED_QUANTITY: MIC
ASSAY_VALUE: 25

[a] NCC1CCC(N)C(OC2C(N)CC(NC(=O)[C@H](O)CCN=C(N)N)C(OC3OC(CO)C(O)C(N)C3O)C2O)O1 (stereo not given in full)
[b] NCC1CCC(N)C(OC2C(N)CC(NC(=O)CCCN=C(N)N)C(OC3OC(CO)C(O)C(N)C3O)C2O)O1 (stereo not given)
Challenge: Pick one: a or b . Which has the bigger MIC number? Use the label to indicate which entry you chose.
Response given: b
(b: 25 µg/mL, a: 1.56 µg/mL)
